Record form. Attribute: Ki. Fill in for each entry.
Molecular target: UniProt:P18841
Sequence (P18841 whole entry): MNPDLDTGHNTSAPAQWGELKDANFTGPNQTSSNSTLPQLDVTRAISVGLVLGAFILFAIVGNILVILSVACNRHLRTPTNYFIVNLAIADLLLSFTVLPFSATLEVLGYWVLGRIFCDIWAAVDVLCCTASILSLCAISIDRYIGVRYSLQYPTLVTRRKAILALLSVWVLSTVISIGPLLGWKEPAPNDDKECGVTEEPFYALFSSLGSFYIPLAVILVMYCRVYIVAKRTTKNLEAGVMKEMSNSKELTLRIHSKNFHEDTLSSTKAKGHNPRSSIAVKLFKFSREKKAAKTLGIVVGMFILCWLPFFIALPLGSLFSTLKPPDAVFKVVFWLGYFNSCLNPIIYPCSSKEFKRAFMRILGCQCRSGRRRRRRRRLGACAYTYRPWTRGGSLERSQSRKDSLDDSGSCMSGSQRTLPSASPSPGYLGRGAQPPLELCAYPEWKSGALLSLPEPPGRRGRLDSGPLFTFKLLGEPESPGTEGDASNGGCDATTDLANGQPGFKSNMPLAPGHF
Test: [3H]-prazosin radioligand binding, cloned α1b (hamster) adrenoreceptor in LTK cells
Settings: cloned receptor in LTK cell membranes, [3H]prazosin 0.2 nM
Counter-ions that a name gives are not always drawn.
Kindly provide the numeric value in nM only, without the unit symbol.

### Prompt With UniProt:P18841 as the test system, provide measured Ki for this molecule: COc1cccc2c1N1CCN(CCCCn3c(=O)[nH]c4c(sc5cccnc54)c3=O)CC1CO2 (single isomer, unassigned; (+)) [Example 14, trihydrochloride]
### Response 8.32

### Prompt With UniProt:P18841 as the test system, provide measured Ki for this molecule: COc1cccc2c1N1CCN(CCn3c(=O)[nH]c4c(sc5ncc(Cl)nc54)c3=O)CC1CO2.Cl.Cl (single isomer, unassigned; (+)) [Example 8, dihydrochloride]
### Response 58.1

### Prompt With UniProt:P18841 as the test system, provide measured Ki for this molecule: COc1cccc2c1N1CCN(CCCCn3c(=O)[nH]c4c(sc5ncccc54)c3=O)CC1CO2 (single isomer, unassigned; (-)) [Example 11, trihydrochloride]
### Response 2.71

---

Molecular target: α1a (rat) adrenoreceptor (Rattus norvegicus, UniProt P43140)
Sequence (P43140 whole entry): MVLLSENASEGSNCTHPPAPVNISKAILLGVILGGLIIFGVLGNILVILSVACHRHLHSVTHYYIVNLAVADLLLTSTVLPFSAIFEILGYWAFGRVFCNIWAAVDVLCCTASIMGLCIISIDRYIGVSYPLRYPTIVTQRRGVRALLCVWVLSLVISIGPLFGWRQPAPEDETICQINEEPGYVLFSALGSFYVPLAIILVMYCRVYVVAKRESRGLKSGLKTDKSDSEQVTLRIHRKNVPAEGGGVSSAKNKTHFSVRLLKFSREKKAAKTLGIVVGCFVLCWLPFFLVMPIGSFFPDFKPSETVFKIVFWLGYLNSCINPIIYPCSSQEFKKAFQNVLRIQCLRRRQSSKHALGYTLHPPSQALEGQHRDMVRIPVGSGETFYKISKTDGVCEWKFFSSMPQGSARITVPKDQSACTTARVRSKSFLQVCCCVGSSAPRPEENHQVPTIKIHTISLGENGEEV
Assay: [3H]-prazosin radioligand binding, cloned α1a (rat) adrenoreceptor in LTK cells
Details: cloned receptor in LTK cell membranes, [3H]prazosin 0.2 nM
Counter-ions that a name gives are not always drawn.
MEASUREMENT_LABEL: Ki (nM)
Kindly provide the numeric value in nM only, without the unit symbol.

### Prompt With α1a (rat) adrenoreceptor (Rattus norvegicus, UniProt P43140) as the test system, provide measured Ki for this molecule: O=c1[nH]c2c(sc3cccnc32)c(=O)n1CCCCN1CCN2c3ccccc3OCC2C1 (single isomer, unassigned; (-)) [Example 4, dihydrochloride]
### Response 6.62

### Prompt With α1a (rat) adrenoreceptor (Rattus norvegicus, UniProt P43140) as the test system, provide measured Ki for this molecule: COc1cccc2c1N1CCN(CCn3c(=O)[nH]c4c(sc5cccnc54)c3=O)CC1CO2.Cl.Cl.Cl (single isomer, unassigned; (+)) [Example 16, trihydrochloride]
### Response 1.24

### Prompt With α1a (rat) adrenoreceptor (Rattus norvegicus, UniProt P43140) as the test system, provide measured Ki for this molecule: COc1cccc2c1N1CCN(CCCn3c(=O)[nH]c4c(sc5cccnc54)c3=O)CC1CO2.Cl.Cl.Cl (single isomer, unassigned; (-)) [Example 9, trihydrochloride]
### Response 0.359

---

Counter-ions that a name gives are not always drawn.
MEASUREMENT_LABEL: melting point

### Prompt Output melting point of COc1cccc2c1N1CCN(CCCCn3c(=O)[nH]c4c(sc5cccnc54)c3=O)CC1CO2 (single isomer, unassigned; (+)) (as salt: hydrochloride) [Example 14, trihydrochloride]
### Response 280 to 282 °C

### Prompt Output melting point of Cl.Cl.O=c1[nH]c2c(sc3cccnc32)c(=O)n1CCCN1CCN2c3ccccc3OCC2C1 (single isomer, unassigned; (+))
### Response 278 to 282 °C

### Prompt Output melting point of O=c1[nH]c2c(sc3cccnc32)c(=O)n1CCCCN1CCN2c3ccccc3OCC2C1 (single isomer, unassigned; (-)) (as salt: hydrochloride) [Example 4, dihydrochloride]
### Response 282 to 284 °C

### Prompt Output melting point of COc1cccc2c1N1CCN(CCCn3c(=O)[nH]c4c(sc5cccnc54)c3=O)CC1CO2.Cl.Cl.Cl (single isomer, unassigned; (+)) [Example 17]
### Response 219 to 224 °C
